Target: human renin (Homo sapiens, UniProt P00797)
Construct: angiotensin-I released from human renin substrate by human resin in human plasma; from tissue; host or cells: human plasma (containing EDTA)
Sequence (P00797 67-406): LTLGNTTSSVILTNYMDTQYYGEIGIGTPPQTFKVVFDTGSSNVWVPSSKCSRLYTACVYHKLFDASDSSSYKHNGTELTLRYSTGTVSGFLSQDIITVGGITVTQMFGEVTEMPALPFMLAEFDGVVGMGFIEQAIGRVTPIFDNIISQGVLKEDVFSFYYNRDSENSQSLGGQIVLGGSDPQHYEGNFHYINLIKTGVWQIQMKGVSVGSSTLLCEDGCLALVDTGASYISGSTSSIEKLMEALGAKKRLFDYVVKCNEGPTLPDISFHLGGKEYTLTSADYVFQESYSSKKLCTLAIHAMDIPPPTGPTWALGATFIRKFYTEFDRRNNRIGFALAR
Assay: human renin-renin substrate reaction in vitro; radioimmunoassay of angiotensin-I released in human plasma
Type: biochemical
Conditions: Table I; human renin in human plasma; read-out: IC50, μM human
Where a SMILES comes first, the peptide text is derived from it. [ ]: non-standard residue; d: D form. The star is where a group is joined. Leuψ(CH2NH)ValIleHisOH = CC[C@H](C)[C@H](NC(=O)[C@@H](NC[C@H](CC(C)C)N*)C(C)C)C(=O)N[C@@H](Cc1c[nH]cn1)C(=O)O; X2 = CC(C)C[C@@H](CN[C@H](C(=O)N[C@@H](Cc1c[nH]cn1)C(=O)NCCCN)C(C)C)N*
Measurement Kind: IC50 (µM)
One number for each entry, in µM.

Molecule: CC[C@H](C)[C@H](NC(=O)[C@@H](NC[C@H](CC(C)C)NC(=O)[C@H](Cc1c[nH]cn1)NC(=O)[C@H](Cc1ccccc1)NC(=O)[C@@H]1CCCN1C(=O)[C@H](N)Cc1c[nH]cn1)C(C)C)C(=O)N[C@@H](Cc1c[nH]cn1)C(=O)N[C@H](CCCCN)C(=O)O
Measurement Kind: IC50
Value Reported: 0.2

Provide the reported IC50 of each entry below, same order.
1. CC[C@H](C)[C@H](NC(=O)[C@@H](NC[C@H](CC(C)C)NC(=O)[C@H](Cc1c[nH]cn1)NC(=O)[C@H](Cc1ccccc1)NC(=O)[C@H]1CCCN1C(=O)[C@@H](N)Cc1c[nH]cn1)C(C)C)C(=O)N[C@@H](Cc1c[nH]cn1)C(=O)O [XXXII] (H-H[dP]FH-{Leuψ(CH2NH)ValIleHisOH})
2. CC(C)C[C@@H](CN[C@H](C(=O)N[C@@H](Cc1c[nH]cn1)C(=O)NCCCN)C(C)C)NC(=O)[C@H](Cc1c[nH]cn1)NC(=O)[C@H](Cc1ccccc1)NC(=O)[C@@H]1CCCN1C(=O)[C@H](Cc1c[nH]cn1)NC(=O)[C@@H]1CCCN1 [XVII] (H-PHPFH-X2)
3. CC[C@H](C)[C@H](NC(=O)[C@@H](NC[C@H](CC(C)C)NC(=O)[C@H](Cc1c[nH]cn1)NC(=O)[C@H](Cc1ccccc1)NC(=O)[C@@H]1CCCN1C(=O)[C@@H](N)Cc1c[nH]cn1)C(C)C)C(=O)N[C@H](Cc1ccc(O)cc1)C(=O)O
4. CC[C@H](C)[C@H](NC(=O)[C@@H](NC[C@H](CC(C)C)NC(=O)[C@H](Cc1c[nH]cn1)NC(=O)[C@H](Cc1ccccc1)NC(=O)[C@@H]1CCCN1C(C)=O)C(C)C)C(=O)N[C@@H](Cc1c[nH]cn1)C(=O)N[C@H](CCCCN)C(=O)O

A)
[5.5, 4.5, 1, 0.6]
